- Test system: SNB-19 CNS
- ASSAY DETAILS: NCI-60 one-dose screen, 48 h (100 = growth as untreated, 0 = no growth, -100 = all killed)
- ASSAY CONDITIONS: 10 µM unless noted
Compounds without any hit were thinned out: in the full panel of roughly 83,000, 20% have a hit.
QUANTITY NAME: growth (%)
Numbers only; they are read as %.

Below are worked cases with known answers.
| MOLECULE | MEAS VALUE |
| --- | --- |
| COCOc1cc2c(=O)c(C)c(C(=O)N[C@@H](Cc3ccccc3)C(O)C(=O)NCc3ccccc3)oc2cc1OC (some centres undefined) | 15.7 |
| COc1ccc(NC(=O)[C@H](C)N)cc1C(=O)Nc1cccc(C2CC(=O)c3c(cc(OC)c(OC)c3OC)O2)c1 (some centres undefined) | 91.5 |
| Cc1ccc(S(=O)(=O)c2nc(S(=O)(=O)c3ccc(C)cc3)c(N3CCC(O)CC3)s2)cc1 | 68.3 |

Shifting focus to the molecule that follows.
[in] Value wanted: growth (SNB-19 CNS) of entry C#CCOc1cc(N(CC)CC)ccc1C(C(=O)NC(C)(C)C)N(C(=O)C1CCc2cc(F)ccc2O1)c1ccc(F)c(Cl)c1 (centres undefined)
[out] 60.5

====

- System: MALME-3M melanoma
- ASSAY DETAILS: NCI-60 one-dose screen, 48 h
- ASSAY CONDITIONS: 10 µM unless noted
About 83,000 compounds went through this panel and 20% of them were active in at least one assay; those are over-represented in the sample as a whole. The source made the active and inactive calls. How the source made its calls: active means growth percent below 10; inactive means the rest.
Hi there, use one of these labels in your reply, thanks! active, inactive

Here's what some known entries look like.
| COMPOUND | CLASS |
| --- | --- |
| COc1ccc(C(=O)/C=C/c2ccc(Cl)c(Cl)c2)cc1S(N)(=O)=O | inactive |
| Cn1cc(-c2cc3nc(-c4cn(C)c5ncccc45)cc(N)n3n2)c2ccccc21 | active |
| C#CCOc1cc(N(CC)CC)ccc1C(C(=O)NC(C)(C)C)N(C(=O)C1CCc2cc(F)ccc2O1)c1ccc(F)cc1 (centres undefined) | inactive |
| N#Cc1c(-c2ccc(Br)cc2)nc2n[nH]c(-c3ccc(Br)cc3)c2c1-c1ccc(C(F)(F)F)cc1 | active |
| COC(=O)C[C@](O)(CCCC(C)(C)O)C(=O)O[C@H]1C(OC)=C[C@@]23CCCN2CCc2cc4c(cc2[C@@H]13)OCO4 | active |
| CCCCCCCCc1ccc(C(=O)Nc2ccc(C)cc2C(=O)O)cc1C | inactive |
| COc1c(F)ccc(C(=O)Nc2ccc3nc(NC(=O)C4CCCN(S(=O)(=O)c5ccc(C(F)(F)F)cc5)C4)sc3c2)c1F (centres undefined) | inactive |
| N#Cc1c(-c2ccccc2Cl)cc(-c2ccc3ccccc3c2)[nH]c1=O | inactive |

For the next question, use this compound.
[in] Check the results log: what was the call for N#Cc1c(-c2ccccc2Cl)cc(-c2c[nH]c3ccccc23)[nH]c1=O ?
[out] inactive

====

- Test system: UACC-257 melanoma
- ASSAY DETAILS: NCI-60 one-dose screen, 48 h (100 = growth as untreated, 0 = no growth, -100 = all killed)
- ASSAY CONDITIONS: 10 µM unless noted
Compounds without any hit were thinned out: in the full panel of roughly 83,000, 20% have a hit.
Assign 1.0 to entries whose growth meets or exceeds 80%; assign 0.0 to the rest.

| COMPOUND | CLASS |
| --- | --- |
| CCCCCCCCc1ccc(C(=O)Nc2cccc(P(=O)(O)O)c2)cc1 | 1.0 |
| N/N=C(\N)c1c(N)nc(=S)[nH]c1-c1ccc(Cl)cc1Cl | 1.0 |
| CC12CC[C@@H]3[C@]4(C)COC(c5cn[nH]c5-c5cccc(Br)c5)O[C@@H]4CC[C@@]3(C)[C@@H]1CC(C1=CCOC1=O)O2 (stereo partly specified) | 0.0 |

[in] Hello, I need to know if COc1ccc2nc(Nc3cccc(NC(=O)c4ccc(CN5CCCN(C)CC5)c(C(F)(F)F)c4)c3)ccc2c1 has measured growth not below 80%. Thanks!
[out] 0.0

[in] Hello, I need to know if COc1ccc(C(=O)/C=C/c2c(F)cccc2Cl)cc1S(N)(=O)=O has measured growth not below 80%. Thanks!
[out] 0.0
